I'd appreciate it if you could supply Efficacy values for the items below.
Molecular target: GABA-A receptor; alpha-5/beta-3/gamma-2 (Homo sapiens) (UniProt P18507+P28472+P31644)
Assay: Percentage modulation of submaximal (EC20) response to GABA-A receptor alpha-5-beta-3-gamma-2 subunits expressed in mouse fibroblast L(tk-) cells
Assay type: functional, cell-based
# do not omit the unit; it follows the number

Below, 6 molecules whose answers are already recorded.
MOLECULE: CSc1ccc(-c2ccccn2)c2c1C(=O)CC(C)(C)C2
MEASURED TARGET: GABA-A receptor; alpha-5/beta-3/gamma-2 (Homo sapiens) (UniProt P18507+P28472+P31644)
Efficacy: -32%

MOLECULE: CCSc1ccc(-c2cccc[n+]2[O-])c2c1C(=O)CC(C)C2 (configuration not stated)
MEASURED TARGET: GABA-A receptor; alpha-5/beta-3/gamma-2 (Homo sapiens) (UniProt P18507+P28472+P31644)
Efficacy: 80%

MOLECULE: CC1CC(=O)c2c(SCc3ncn(C)n3)ccc(-c3nccs3)c2C1 (configuration not stated)
MEASURED TARGET: GABA-A receptor; alpha-5/beta-3/gamma-2 (Homo sapiens) (UniProt P18507+P28472+P31644)
Efficacy: 29%

MOLECULE: CNC1=Nc2ccc(Cl)cc2C(c2ccccc2)=[N+]([O-])C1
MEASURED TARGET: GABA-A receptor; alpha-5/beta-3/gamma-2 (Homo sapiens) (UniProt P18507+P28472+P31644)
Efficacy: 99%

MOLECULE: COc1nc(CSc2ccc(-c3nccs3)c3c2C(=O)CC(C)C3)ns1 (configuration not stated)
MEASURED TARGET: GABA-A receptor; alpha-5/beta-3/gamma-2 (Homo sapiens) (UniProt P18507+P28472+P31644)
Efficacy: 57%

MOLECULE: CCc1c(C(=O)OC)ncc2[nH]c3cc(OC)c(OC)cc3c12
MEASURED TARGET: GABA-A receptor; alpha-5/beta-3/gamma-2 (Homo sapiens) (UniProt P18507+P28472+P31644)
Efficacy: -57%

Please turn your attention to the following entry.
Give its Efficacy value. Item: CC1CC(=O)c2c(SCc3cn[nH]n3)ccc(-c3nccs3)c2C1 (configuration not stated) 6%

###

Biological target: GABA-A receptor; alpha-3/beta-3/gamma-2 (Homo sapiens, UniProt P18507+P28472+P34903)
Sequence (P18507 whole entry): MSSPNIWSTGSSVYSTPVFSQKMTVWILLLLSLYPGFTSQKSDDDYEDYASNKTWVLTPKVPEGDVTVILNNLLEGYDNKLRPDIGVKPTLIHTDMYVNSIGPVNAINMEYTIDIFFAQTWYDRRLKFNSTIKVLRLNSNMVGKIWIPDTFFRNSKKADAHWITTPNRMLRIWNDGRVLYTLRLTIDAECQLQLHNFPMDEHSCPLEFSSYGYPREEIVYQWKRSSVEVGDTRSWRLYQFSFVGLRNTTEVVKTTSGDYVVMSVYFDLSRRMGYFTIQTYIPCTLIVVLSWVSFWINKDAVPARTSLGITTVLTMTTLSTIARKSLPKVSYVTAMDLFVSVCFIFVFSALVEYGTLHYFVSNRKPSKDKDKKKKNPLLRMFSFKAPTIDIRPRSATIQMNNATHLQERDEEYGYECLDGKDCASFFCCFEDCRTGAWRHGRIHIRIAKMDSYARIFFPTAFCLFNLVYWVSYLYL
Sequence (P28472 whole entry): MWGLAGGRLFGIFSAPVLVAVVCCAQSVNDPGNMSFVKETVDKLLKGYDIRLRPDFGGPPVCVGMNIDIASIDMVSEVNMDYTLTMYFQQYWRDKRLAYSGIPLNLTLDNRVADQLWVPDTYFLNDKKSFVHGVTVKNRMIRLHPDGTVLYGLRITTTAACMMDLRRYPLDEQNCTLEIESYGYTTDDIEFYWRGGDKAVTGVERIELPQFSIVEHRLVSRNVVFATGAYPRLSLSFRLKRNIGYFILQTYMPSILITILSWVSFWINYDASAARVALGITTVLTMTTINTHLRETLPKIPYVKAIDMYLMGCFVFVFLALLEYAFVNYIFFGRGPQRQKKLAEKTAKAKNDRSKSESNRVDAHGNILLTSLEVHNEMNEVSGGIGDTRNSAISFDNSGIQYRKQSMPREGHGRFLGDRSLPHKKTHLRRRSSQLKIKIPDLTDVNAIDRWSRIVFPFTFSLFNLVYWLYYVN
Sequence (P34903 whole entry): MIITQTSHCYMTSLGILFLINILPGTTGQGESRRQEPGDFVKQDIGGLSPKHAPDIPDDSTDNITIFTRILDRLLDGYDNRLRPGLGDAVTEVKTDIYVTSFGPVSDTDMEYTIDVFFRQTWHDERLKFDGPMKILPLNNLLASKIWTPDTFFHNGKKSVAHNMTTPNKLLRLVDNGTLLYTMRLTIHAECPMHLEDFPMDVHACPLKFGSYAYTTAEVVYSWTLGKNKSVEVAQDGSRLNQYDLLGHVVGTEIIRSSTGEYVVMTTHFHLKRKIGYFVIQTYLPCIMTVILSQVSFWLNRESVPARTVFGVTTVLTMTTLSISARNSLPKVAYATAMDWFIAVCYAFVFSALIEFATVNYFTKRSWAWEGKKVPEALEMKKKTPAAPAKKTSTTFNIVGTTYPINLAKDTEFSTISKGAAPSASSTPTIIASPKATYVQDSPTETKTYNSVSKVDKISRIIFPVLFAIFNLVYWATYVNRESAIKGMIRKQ
Test: Inhibition of [3H]-Ro- 15-1788 binding to recombinant human gamma-aminobutyric-acid A receptor alpha-3-beta-3-gamma-2
REPORTED PROPERTY: Ki
# do not omit the unit; it follows the number

Below, 5 compounds whose answers are already recorded.
COMPOUND: CCSc1ccc(-c2ccccn2)c2c1C(=O)CC(C)C2 (stereo unspecified)
Ki: 15 nM
//
COMPOUND: CSc1ccc(-c2ccccn2)c2c1C(=O)CC(C)(C)C2
Ki: 59 nM
//
COMPOUND: CCSc1ccc(-c2cnccn2)c2c1C(=O)CC(C)C2 (stereo unspecified)
Ki: 13 nM
//
COMPOUND: CC1CC(=O)c2c(Sc3cccs3)ccc(-c3ccccn3)c2C1 (stereo unspecified)
Ki: 4.5 nM
//
COMPOUND: CC1CC(=O)c2c(SCc3ncn(C)n3)ccc(-c3nccs3)c2C1 (stereo unspecified)
Ki: 16 nM

Please turn your attention to the following entry.
Give its Ki value. Item: CCSc1ccc(-c2nccs2)c2c1C(=O)CC(C)C2 (stereo unspecified) 12 nM

###

Biological target: GABA-A receptor; alpha-3/beta-3/gamma-2 (Homo sapiens, UniProt P18507+P28472+P34903)
Sequence (P18507 whole entry): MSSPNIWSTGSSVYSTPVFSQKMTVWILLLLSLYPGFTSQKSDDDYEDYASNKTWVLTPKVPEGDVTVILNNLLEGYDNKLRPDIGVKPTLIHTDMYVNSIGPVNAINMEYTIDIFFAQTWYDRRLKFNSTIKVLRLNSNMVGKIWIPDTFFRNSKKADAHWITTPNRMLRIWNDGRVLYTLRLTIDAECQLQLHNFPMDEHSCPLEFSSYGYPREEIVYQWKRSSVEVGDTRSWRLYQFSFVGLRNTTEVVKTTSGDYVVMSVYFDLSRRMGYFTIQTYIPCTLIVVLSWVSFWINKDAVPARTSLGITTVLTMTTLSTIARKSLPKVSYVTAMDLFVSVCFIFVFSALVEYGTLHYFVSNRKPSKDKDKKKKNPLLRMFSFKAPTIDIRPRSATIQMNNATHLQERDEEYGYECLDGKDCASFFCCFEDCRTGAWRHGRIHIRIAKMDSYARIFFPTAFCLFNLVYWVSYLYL
Sequence (P28472 whole entry): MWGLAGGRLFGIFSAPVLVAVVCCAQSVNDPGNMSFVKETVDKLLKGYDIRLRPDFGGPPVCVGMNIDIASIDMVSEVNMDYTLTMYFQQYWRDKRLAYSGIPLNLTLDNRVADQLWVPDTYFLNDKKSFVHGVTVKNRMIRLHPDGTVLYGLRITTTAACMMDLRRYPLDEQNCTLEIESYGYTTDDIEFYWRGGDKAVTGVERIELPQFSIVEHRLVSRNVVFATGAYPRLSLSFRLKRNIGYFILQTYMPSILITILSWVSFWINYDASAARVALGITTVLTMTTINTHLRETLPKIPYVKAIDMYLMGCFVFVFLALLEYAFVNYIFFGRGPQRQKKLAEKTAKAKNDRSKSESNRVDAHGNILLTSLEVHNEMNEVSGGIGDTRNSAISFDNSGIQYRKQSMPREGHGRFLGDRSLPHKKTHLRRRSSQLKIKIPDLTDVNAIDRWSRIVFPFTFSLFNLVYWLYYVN
Sequence (P34903 whole entry): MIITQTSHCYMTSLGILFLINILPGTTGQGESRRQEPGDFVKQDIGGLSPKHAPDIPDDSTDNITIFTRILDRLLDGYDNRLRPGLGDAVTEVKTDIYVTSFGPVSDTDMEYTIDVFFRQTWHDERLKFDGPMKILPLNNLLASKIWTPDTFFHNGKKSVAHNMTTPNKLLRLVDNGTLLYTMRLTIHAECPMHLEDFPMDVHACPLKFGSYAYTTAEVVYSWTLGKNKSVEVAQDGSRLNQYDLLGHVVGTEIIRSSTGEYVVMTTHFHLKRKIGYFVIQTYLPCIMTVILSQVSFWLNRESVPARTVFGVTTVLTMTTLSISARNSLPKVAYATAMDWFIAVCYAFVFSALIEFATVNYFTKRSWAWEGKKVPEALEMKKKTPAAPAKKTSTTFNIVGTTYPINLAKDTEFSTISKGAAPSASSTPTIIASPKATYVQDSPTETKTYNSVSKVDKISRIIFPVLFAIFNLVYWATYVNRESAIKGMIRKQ
Assay: Inhibition of [3H]-Ro- 15-1788 binding to recombinant human gamma-aminobutyric-acid A receptor alpha-3-beta-3-gamma-2
I'd appreciate it if you could supply pKi values for the items below.
Give bare numbers, as −log10 of the molar value.

Below, 4 compounds whose answers are already recorded.
COMPOUND: CSc1ccc(-c2ccccn2)c2c1C(=O)CC(C)C2 (stereo unspecified)
pKi: 7.38

COMPOUND: CCSc1ccc(-c2ncco2)c2c1C(=O)CC(C)C2 (stereo unspecified)
pKi: 7.80

COMPOUND: CC1CC(=O)c2c(SCc3cn[nH]n3)ccc(-c3nccs3)c2C1 (stereo unspecified)
pKi: 7.44

COMPOUND: CCSc1ccc(-c2cccc[n+]2[O-])c2c1C(=O)CC(C)C2 (stereo unspecified)
pKi: 6.54

Please turn your attention to the following entry.
Give its pKi value. Item: COc1nc(CSc2ccc(-c3nccs3)c3c2C(=O)CC(C)C3)ns1 (stereo unspecified) 7.46
